Taken from ChEMBL document CHEMBL3137667.

Conditions: human, serum;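 note: human clinical chemistry: moderate when serum ALT or AST reaches 6× upper normal limit or alkaline phosphatase 1.7×, value counts indexed literature references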
Rule: Hepatotoxicity (moderate) below 1 gives satisfied. Equal to or above 1 gives not satisfied.

| COMPOUND | CLASSIFICATION |
| --- | --- |
| NNC(=O)c1ccncc1 | not satisfied |
| Cc1cccc(Nc2ccccc2C(=O)O)c1C | satisfied |
| CCc1ccc(CCOc2ccc(CC3SC(=O)NC3=O)cc2)nc1 (stereo not given) | not satisfied |
| COCC1=C(C(=O)O)N2C(=O)[C@@H](NC(=O)/C(=N\OC)c3csc(N)n3)[C@H]2SC1 | not satisfied |
| COCCOC(=O)C1=C(C)NC(C)=C(C(=O)OC(C)C)C1c1cccc([N+](=O)[O-])c1 (stereo not given) | not satisfied |
| OC(Cn1cncn1)(Cn1cncn1)c1ccc(F)cc1F | not satisfied |
| C=CC1=C(C(=O)O)N2C(=O)[C@@H](NC(=O)/C(=N\OCC(=O)O)c3csc(N)n3)[C@H]2SC1 | not satisfied |
| COc1cc([C@@H]2c3cc4c(cc3[C@@H](O[C@@H]3O[C@@H]5CO[C@@H](C)O[C@H]5[C@H](O)[C@H]3O)[C@H]3COC(=O)[C@H]23)OCO4)cc(OC)c1O [ETOPOSIDE] | not satisfied |
| CNC(=C[N+](=O)[O-])NCCSCc1ccc(CN(C)C)o1 | not satisfied |
| CCCNC(=O)NS(=O)(=O)c1ccc(Cl)cc1 [CHLORPROPAMIDE] | not satisfied |
| CCN(CC)CC[n+]1ccc2c(C)c3[nH]c4ccc(O)cc4c3c(C)c2c1.[Cl-] [DATELLIPTIUM CHLORIDE] | not satisfied |
| Nc1ccn([C@@H]2O[C@H](CO)[C@@H](O)C2(F)F)c(=O)n1 | not satisfied |
| CCCSc1ccc2nc(NC(=O)OC)[nH]c2c1 | not satisfied |
| CC(=O)c1ccc2c(c1)N(CCCN(C)C)c1ccccc1S2 | satisfied |
| CC(=O)[C@@]1(O)CC[C@H]2[C@@H]3C[C@H](C)C4=CC(=O)CC[C@]4(C)[C@H]3CC[C@@]21C | not satisfied |
| CN(C)[C@@H]1C(O)=C(C(=O)NCNCCCC[C@H](N)C(=O)O)C(=O)[C@@]2(O)C(O)=C3C(=O)c4c(O)cccc4[C@@](C)(O)[C@H]3C[C@@H]12 | satisfied |
| NS(=O)(=O)c1cc2c(cc1C(F)(F)F)NC(Cc1ccccc1)NS2(=O)=O (stereo not given) [BENDROFLUMETHIAZIDE] | satisfied |
| O=c1oc2ccccc2c(O)c1Cc1c(O)c2ccccc2oc1=O | not satisfied |
| CC[C@]1(O)C[C@H]2CN(CCc3c([nH]c4ccccc34)[C@@](C(=O)OC)(c3cc4c(cc3OC)N(C=O)[C@H]3[C@@](O)(C(=O)OC)[C@H](OC(C)=O)[C@]5(CC)C=CCN6CC[C@]43[C@@H]65)C2)C1 | not satisfied |
| CN1CCN(CC(=O)N2c3ccccc3C(=O)Nc3cccnc32)CC1 [PIRENZEPINE] | not satisfied |
| Nc1nnc(-c2cccc(Cl)c2Cl)c(N)n1 | not satisfied |
| C[C@@H](CN1CC(=O)NC(=O)C1)N1CC(=O)NC(=O)C1 | not satisfied |
| Oc1ncnc2[nH]ncc12 | not satisfied |
| CC(C)Nc1ncccn1 | satisfied |
| CC/C(=C(/CC)c1ccc(O)cc1)c1ccc(O)cc1 | not satisfied |
| CN1CCC(=C2c3ccccc3CCc3sccc32)CC1 | satisfied |
| O=C(O)c1cc(-c2ccc(F)cc2F)ccc1O | not satisfied |
